Origin of measurements: patent EP0788796A1

assay: Uric acid excreting and diuretic actions in rats; assay type: in vivo, Wistar rats; conditions: Rattus norvegicus; 300 mg/kg oral, female Wistar rats, urine collected up to 5 h, relative value with control = 100; read-out: Urinary excretion of uric acid (%)
Attribute measured: response vs control in vivo at 300 mg/kg
Reply with the number, then its unit.

CCCN(CCC)S(=O)(=O)c1ccc(C(=O)O)cc1 [Probenecid, probenecid, reference compound] : 78%
O=C1CN(S(=O)(=O)C2CCCCC2)C(=O)N1 : 116%
O=C1CN(S(=O)(=O)C2CCCCCCC2)C(=O)N1 : 103%

INPUT: What does the data say about its response vs control in vivo at 300 mg/kg? Entry: O=C1CN(S(=O)(=O)c2cc(Cl)ccc2Cl)C(=O)N1
OUTPUT: 96%

---

assay: Uric acid excreting and diuretic actions in rats; type: in vivo, Wistar rats; details: Rattus norvegicus; 300 mg/kg oral, female Wistar rats, urine collected up to 5 h, relative value with control = 100; read-out: Urine Volume (%)
Attribute measured: response vs control in vivo at 300 mg/kg (%)
Your answer is read as %, so omit the unit and give the number.

O=C1CN(S(=O)(=O)C2CCCCC2)C(=O)N1 [Compound 1, 1-(cyclohexylsulfonyl)hydantoin] : 96
Cc1cc(S(=O)(=O)N2CC(=O)NC2=O)c(C)s1 [Compound 4] : 111

INPUT: May I ask what response vs control in vivo at 300 mg/kg has been recorded for CCCN(CCC)S(=O)(=O)c1ccc(C(=O)O)cc1 [Probenecid, probenecid, reference compound] ?
OUTPUT: 60

INPUT: // query response vs control in vivo at 300 mg/kg value for entry O=C1CN(S(=O)(=O)C2CCCCCCC2)C(=O)N1 [Compound 3, 1-(cyclooctylsulfonyl)hydantoin]
OUTPUT: 109

INPUT: Which value of response vs control in vivo at 300 mg/kg has been reported for O=C1CN(S(=O)(=O)C2CCCCCC2)C(=O)N1 [Compound 2, 1-(cycloheptylsulfonyl)hydantoin] in the records?
OUTPUT: 159

INPUT: Dear colleague, I am looking for the recorded response vs control in vivo at 300 mg/kg of the following compound: O=C1CN(S(=O)(=O)C2Cc3ccccc3C2)C(=O)N1 [Compound 5, 1-(indan-2-ylsulfonyl)hydantoin]
OUTPUT: 135

INPUT: If you can, please state the reported response vs control in vivo at 300 mg/kg value of O=C1CN(S(=O)(=O)c2cc(Cl)ccc2Cl)C(=O)N1 [Compound 6, 1-(2,5-dichlorophenylsulfonyl)hydantoin] .
OUTPUT: 151

---

assay: Uric acid excreting and diuretic actions in rats; type: in vivo, Wistar rats; conditions: Rattus norvegicus; 300 mg/kg oral, female Wistar rats, urine collected up to 5 h, relative value with control = 100; read-out: Urinary excretion of uric acid (%)
# response vs control in vivo at 300 mg/kg annotations
Numeric answer only, unit % assumed.

O=C1CN(S(=O)(=O)C2Cc3ccccc3C2)C(=O)N1 : 102

INPUT: Consider the compound shown here: Cc1cc(S(=O)(=O)N2CC(=O)NC2=O)c(C)s1 What is its recorded response vs control in vivo at 300 mg/kg?
OUTPUT: 104

INPUT: Look up response vs control in vivo at 300 mg/kg: O=C1CN(S(=O)(=O)C2CCCCCC2)C(=O)N1
OUTPUT: 152
